Molecular target: HA H5 A/Vietnam/1203/04 (Influenza A virus (A/Vietnam/1203/2004(H5N1)), UniProt Q5EP31)
Assay: biochemical
Settings: Competition binding (AlphaLISA), pIC50 H5 A/Vietnam/1203/04
Measure Name: pIC50
Schema: pIC50 number; meaning minus log10 of the concentration expressed in molar units.

Please review the following examples before continuing.
compound="CNc1ccc2oc(-c3cccc(C(=O)N4CCN(C(C(=O)OC)c5ccccc5)CC4)c3)nc2c1 (stereo not shown)" experimental_system="HA H5 A/Vietnam/1203/04 (Influenza A virus (A/Vietnam/1203/2004(H5N1)), UniProt Q5EP31)" value=6.60
compound="Cc1nnc(C(c2ccccc2)N2CCN(C(=O)c3cccc(-c4nc5cc(F)ccc5o4)c3)CC2)o1 (stereo not shown)" experimental_system="HA H5 A/Vietnam/1203/04 (Influenza A virus (A/Vietnam/1203/2004(H5N1)), UniProt Q5EP31)" value=5.00
compound="COc1ccc2nc(-c3cccc(C(=O)N4CCN(C5(c6ccccc6)CCN(C)C5=O)CC4)c3)sc2c1 (stereo not shown)" experimental_system="HA H5 A/Vietnam/1203/04 (Influenza A virus (A/Vietnam/1203/2004(H5N1)), UniProt Q5EP31)" value=4.40
compound=COC(=O)[C@@H](c1ccccc1)N1CCN(C(=O)c2cccc(-c3nc4cc(C(F)(F)F)ccc4o3)c2)CC1 experimental_system="HA H5 A/Vietnam/1203/04 (Influenza A virus (A/Vietnam/1203/2004(H5N1)), UniProt Q5EP31)" value=6.30
compound=COC(=O)[C@@H](c1ccccc1)N1CCN(C(=O)c2cccc(-c3nc4cc(OC)ccc4o3)c2)CC1 experimental_system="HA H5 A/Vietnam/1203/04 (Influenza A virus (A/Vietnam/1203/2004(H5N1)), UniProt Q5EP31)" value=6.70

pIC50 in this record for COC(=O)C(c1ccccc1)N1CCN(C(=O)c2cc(-c3nc4cc(C(F)(F)F)ccc4o3)ccn2)CC1 (stereo not shown) : 6.40

pIC50 in this record for COc1ccc2oc(-c3ccnc(C(=O)N4CCN(C(c5ccccc5)c5nnc(C)o5)CC4)c3)nc2c1 (stereo not shown) : 6.10
